I'd appreciate it if you could supply EE (%) N/P:6 values for the items below.
assay: Plate-based fluorescence (RiboGreen) assay: nucleic acid cargo content and encapsulation efficiency of LNPs; assay type: physicochemical; settings: LNP, Formulation F4, N/P 6
Give just the number in %; leave the unit off.

For CCCCC/C=C\CCOC(=O)CCCCCCC(=O)OCC(COC(=O)CCCCCCC(=O)OCC/C=C\CCCCC)(COC(=O)CCC(CCCCCC)OC(=O)NCCN1CCCC1)COC(=O)CCC(OCCCCCCCC)OCCCCCCCC (stereo not shown) the compound record lists EE (%) N/P:6 as 98

For CCCCC/C=C\C/C=C\CCCCCCCC(=O)OCC(COC(=O)CCCCCCC/C=C\C/C=C\CCCCC)(COC(=O)CCCCCCC/C=C\C/C=C\CCCCC)COC(=O)CCC(CCCCCC)OC(=O)NCCN1CCCC1 (stereo not shown) the compound record lists EE (%) N/P:6 as 97

For CCCCC/C=C\CCOC(=O)CCCCCC(=O)OCC(COC(=O)CCCCCC(=O)OCC/C=C\CCCCC)(COC(=O)CCC(CCCCCC)OC(=O)NCCN1CCCC1)COC(=O)CC12CC3CC(CC(C3)C1)C2 (stereo not shown) the compound record lists EE (%) N/P:6 as 99

For CCCCCCCCOC(CCC(=O)OCC(COC(=O)CCCCCCOC(=O)C(CCCC)CCCCCC)(COC(=O)CCC(CCCCCC)OC(=O)NCCN1CCCC1)COC(=O)CCC(OCCCCCCCC)OCCCCCCCC)OCCCCCCCC (stereo not shown) the compound record lists EE (%) N/P:6 as 100

For CCCCCCCC/C=C\CCCCCCCC(=O)OCC(COC(=O)CCCCCCC/C=C\CCCCCCCC)(COC(=O)CCCCCCC/C=C\CCCCCCCC)COC(=O)CCC(CCCCCC)OC(=O)NCCN1CCCC1 (stereo not shown) the compound record lists EE (%) N/P:6 as 100

For CCCCC/C=C\CCOC(=O)CCCCCCC(=O)OCC(COC(=O)CCCCCCC(=O)OCC/C=C\CCCCC)(COC(=O)CCCCCCC(=O)OCC/C=C\CCCCC)COC(=O)CCC(CCCCCC)OC(=O)NCCN1CCCC1 (stereo not shown) the compound record lists EE (%) N/P:6 as 100

For CCCCC/C=C\CCOC(=O)CCCCC(=O)OCC(COC(=O)CCCCC(=O)OCC/C=C\CCCCC)(COC(=O)CCC(CCCCCC)OC(=O)NCCN1CCCC1)COC(=O)CC12CC3CC(CC(C3)C1)C2 (stereo not shown) the compound record lists EE (%) N/P:6 as 98

For CCCCC/C=C\CCOC(=O)CCCCCC(=O)OCC(COC(=O)CCCCCC(=O)OCC/C=C\CCCCC)(COC(=O)CCC(CCCCCC)OC(=O)NCCN1CCCC1)COC(=O)CCC(OCCCCCCCC)OCCCCCCCC (stereo not shown) the compound record lists EE (%) N/P:6 as 99

For CCCCC/C=C\C/C=C\CCCCCCCC(=O)OCC(COC(=O)CCCCCCC/C=C\C/C=C\CCCCC)(COC(=O)CCC(CCCCCC)OC(=O)NCCN1CCCC1)COC(=O)CCC(OCCCCCCCC)OCCCCCCCC (stereo not shown) the compound record lists EE (%) N/P:6 as 100

For CCCCCCC(CCC(=O)OCC(COC(=O)CCCCCCOC(=O)C(CCCC)CCCCCC)(COC(=O)CCCCCCOC(=O)C(CCCC)CCCCCC)COC(=O)CCCCCCOC(=O)C(CCCC)CCCCCC)OC(=O)NCCN1CCCC1 (stereo not shown) the compound record lists EE (%) N/P:6 as 99

This collection of values is drawn from patent US20260234115A1.
